Origin of measurements: paper PMC9317397

- target-desc: HBV capsid assembly (full-length HBc protein, genotype D1) (Hepatitis B virus genotype D subtype ayw, UniProt P03146, A80I/T33N/V74G)
- Sequence (P03146 whole entry A80I/T33N/V74G, looked up): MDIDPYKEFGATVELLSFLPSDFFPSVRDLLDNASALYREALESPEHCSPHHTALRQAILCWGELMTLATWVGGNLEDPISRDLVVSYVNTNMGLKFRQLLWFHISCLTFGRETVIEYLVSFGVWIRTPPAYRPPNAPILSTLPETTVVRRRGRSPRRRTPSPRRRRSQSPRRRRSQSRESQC
- assay: HBV capsid assembly in SFV1/HBc-infected HBc-producing BHK-21 cells, native agarose gel anti-HBc immunoblot
- Format: cell-based
- conditions-used: HBc-producing BHK-21 cells, 24 h, native agarose immunoblot
Under this convention, criterion met denotes Effect on Capsid Assembly, Starting Concentration strictly below 10 µM and criterion not met denotes Effect on Capsid Assembly, Starting Concentration at or above 10 µM.

compound: COC(=O)C1=C(C)NC(c2ncc(F)cc2F)=NC1c1ccc(F)cc1Cl (centres unmarked) [1a, Bay 41-4109, reference compound]
assigned-class: criterion met
//
compound: CCOC(=O)C1=C(C)NC(c2nccs2)=NC1c1ccc(F)cc1 (centres unmarked) [1j]
assigned-class: criterion met
//
compound: O=C1OCC2=C1C(c1ccc(F)cc1Cl)N=C(c1ncc(F)cc1F)N2 (centres unmarked) [compound 5]
assigned-class: criterion not met
//
compound: CCOC(=O)C1=C(C)NC(c2ncc(F)cc2F)=NC1c1ccc(F)cc1 (centres unmarked) [1c]
assigned-class: criterion met
//
compound: CCOCCOC(=O)C1=C(C)NC(c2ncc(F)cc2F)=NC1c1ccc(F)cc1Cl (centres unmarked) [1d]
assigned-class: criterion met
//
compound: CC1=C(C(=O)Nc2ccccn2)C(c2ccc(F)cc2Cl)N=C(c2ncc(F)cc2F)N1 (centres unmarked) [1h]
assigned-class: criterion not met
//
compound: CCOC(=O)C1=C(C)NC(c2nccs2)=NC1c1ccccc1 (centres unmarked) [1k]
assigned-class: criterion met
//
compound: COc1ccccc1NC(=O)C1=C(C)NC(c2ncc(F)cc2F)=NC1c1ccc(F)cc1Cl (centres unmarked) [1i]
assigned-class: criterion not met

###

molecules and their reported Effect on Capsid Assembly, Starting Concentration
- target-desc: HBV capsid assembly (full-length HBc protein, genotype D1) (Hepatitis B virus genotype D subtype ayw, UniProt P03146, A80I/T33N/V74G)
- assay: HBV capsid assembly in SFV1/HBc-infected HBc-producing BHK-21 cells, native agarose gel anti-HBc immunoblot
- Format: cell-based
- conditions-used: HBc-producing BHK-21 cells, 24 h, native agarose immunoblot
reported-metric: Effect on Capsid Assembly, Starting Concentration (µM)

molecule: CC1=C(C(=O)OCCOC(C)C)C(c2ccc(F)cc2Cl)N=C(c2ncc(F)cc2F)N1 (stereo not drawn)
readout-number: 10
--
molecule: CC1=C(C(=O)O)C(c2ccc(F)cc2Cl)N=C(c2ncc(F)cc2F)N1 (stereo not drawn)
readout-number: 10
--
molecule: CCCOCCOC(=O)C1=C(C)NC(c2ncc(F)cc2F)=NC1c1ccc(F)cc1Cl (stereo not drawn)
readout-number: 10
